Data provenance is ChEMBL document CHEMBL1122721.

- Measurement target: Adrenergic receptor beta (Cavia porcellus)
- Assay summary: Beta adrenergic receptor blocking activity measured by the chronotropic effect was determined 1 hr after pretreatment of the right atria in guinea pig
pA2 of 6 or higher: label 1. Under 6: label 0.

Check out these entries, answers already filled in.
INSERT INTO assay_data (compound, classification) VALUES
  ('C=C(c1cc(Cl)ccc1OCC(O)CNC(C)C)n1ccnc1 (stereo not given)', 'label 1'),
  ('C=C(c1c(C)ccc(C)c1OCC(O)CNC(C)C)n1ccnc1 (stereo not given)', 'label 1'),
  ('C=C(c1c(Cl)ccc(Cl)c1OCC(O)CNC(C)C)n1ccnc1 (stereo not given)', 'label 0');

Answer whether pA2 of C=C(c1cccc(Cl)c1OCC(O)CNC(C)C)n1ccnc1 (stereo not given) is greater than or equal to 6.
label 0

Decide: is the reported value of pA2 for C=C(c1cc(C)cc(C)c1OCC(O)CNC(C)C)n1ccnc1 (stereo not given) equal to or greater than 6?
label 0
